The measurements presented in this section are drawn from ChEMBL document CHEMBL6092212.

Listed below: pIC50 values for each entry.
target: Cholinesterase (Equus caballus, UniProt P81908)
Sequence (P81908 whole entry): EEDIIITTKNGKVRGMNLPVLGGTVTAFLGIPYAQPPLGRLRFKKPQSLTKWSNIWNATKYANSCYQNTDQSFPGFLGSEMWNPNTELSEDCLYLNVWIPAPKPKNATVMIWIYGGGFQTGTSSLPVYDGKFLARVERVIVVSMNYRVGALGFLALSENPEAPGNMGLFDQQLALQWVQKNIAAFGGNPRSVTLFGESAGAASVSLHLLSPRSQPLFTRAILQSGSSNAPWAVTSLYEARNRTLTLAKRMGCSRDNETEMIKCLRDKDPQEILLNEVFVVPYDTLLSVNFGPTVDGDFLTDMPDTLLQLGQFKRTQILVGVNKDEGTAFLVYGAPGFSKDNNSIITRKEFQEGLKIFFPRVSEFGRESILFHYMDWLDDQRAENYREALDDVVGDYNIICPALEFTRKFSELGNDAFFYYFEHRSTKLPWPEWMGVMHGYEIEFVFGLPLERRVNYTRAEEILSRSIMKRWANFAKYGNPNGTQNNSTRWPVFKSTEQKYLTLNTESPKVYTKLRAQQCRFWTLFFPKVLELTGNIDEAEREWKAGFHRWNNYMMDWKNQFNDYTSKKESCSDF
pIC50: −log10 of the molar value.
Measurement label: pIC50

1. COc1ccc(NC(=O)Nc2cccc(/C(N)=N/O)c2)cc1 = 4.75
2. NC(=NO)c1cccc(NC(=O)Nc2cccc(O)c2)c1 = 4.81
3. N/C(=N\O)c1ccc(NC(=O)Nc2ccc(Cl)cc2)cc1 = 4.83
4. N/C(=N\O)c1cccc(NC(=O)NCCc2c[nH]c3ccc(Cl)cc23)c1 = 5.51
5. N/C(=N\O)c1cccc(NC(=O)Nc2cccc(C(F)(F)F)c2)c1 = 4.98
6. Cc1ccc(NC(=O)Nc2cccc(/C(N)=N/O)c2)cc1 = 4.75
7. NC(=NO)c1cccc(NC(=O)Nc2ccc(Br)cc2)c1 = 4.84
8. NC(=NO)c1cccc(NC(=O)Nc2ccc3ncccc3c2)c1 = 4.81
9. NC(=NO)c1cccc(NC(=O)Nc2ccccc2C(F)(F)F)c1 = 4.77
10. N/C(=N\O)c1ccc(NC(=O)Nc2ccc3[nH]ccc3c2)cc1 = 4.90
11. N/C(=N\O)c1ccc(NC(=O)Nc2ccc3ncccc3c2)cc1 = 4.88
